assay: soluble on expression in E. coli; label from the status in PepcDB or PDB records
readout_kind: soluble on expression in E. coli

| residue_sequence | readout_kind | result |
| --- | --- | --- |
| MAHHHHHHMAMKDAVWLGKPVDVTGEDLCSVYTSRIGGTATLFRETADYSVFRCPKCNSMNTVSLLAQIYAPLDVYDRLLYVLTCSTCSTEQSTFCFALRSQNFNPSYKNVSQTNDKGGCEDKRLLFEESADWGDGMDKGWDYDYKSVKSNTATEQRGNRSTVNEAIADDICSTEVPSSLAPPGSQPPIRGMRFPCFTLEVFEEPPKVKPKSAPFNIQLHEAQGKYGEDVVETTVLDEADEPLHEKLLRKYVERIGRVPSQCVRWGPSREPLQLSVISIVAPRCPYCGKKRRYELQLTSPIIYFLTKSNEKKHPLHFGNVLVFTCSGNCNTEAYALEYCFVEGEI | soluble on expression in E. coli | not soluble |
| MNEKKERIIKTSIRLFAKKGFAATTIQEIASECGISKGAFYLHFKSKEALLLSACEYYIGMSMNKMKNIEEDLAGKPPKEVLKKQIGAQFEDFRDHKDFIVLLLTENIIPENQEIKQYFYKVTMETDKLYRNALLVSYGEGIERYVADLSIMARGIVHSYMNVMVFNGELNIDAEEISAFIIERLDDLVQGLSRSALNPIVSKDIFNPMPAGKDQLLEDIQKVKENSTLPEDITVSLDVIEEELTQDKPRKPIIKGMLSNLAGTNDKEVERLRALILSLSQFDHKKSSL | soluble on expression in E. coli | not soluble |
| GWIQELTAGHAEHTPETEEYGISSFVYKRRLPFHSTRFYRWLDQMPKNVVRAKGIVWCASHNNLALLMSQAGPSVTIEPVSYWVAALPKLEQEQVKQQEPEILEEWDPEFGDRLTQLVFIGTDLDEETITKELDQCLLTEYEFDSDWSLFEDPFKWKLNQ | soluble on expression in E. coli | not soluble |
